molecular target: recombinant CREBBP bromodomain (Homo sapiens); construct: recombinant CREBBP bromodomain obtained from BPS Bioscience, USA; purchased BPS Bioscience, USA; experiment: CBP TR-FRET displacement assay; type: binding; conditions: compound at 10 μM
Readout Type: inhibition at 10 µM (%)

A selection of reference data follows.
[[record]]
smi = "CN1CCN(c2cccc3c2ccc(=O)n3C)c2cc(C#N)c(-c3cnn(C)c3)cc21"
measurement = 99

[[record]]
smi = "Cc1cc2c(N3CCN(C)c4cc(-c5cnn(C)c5)c(CO)cc43)cccc2[nH]c1=O"
measurement = 91

[[record]]
smi = "Cc1cc2c(N3CCN(C4CCOCC4)c4ccccc43)cccc2n(C)c1=O"
measurement = 25


A. CCc1cc2c(N3CCN(C)c4cc(-c5cnn(C)c5)c(C#N)cc43)cccc2[nH]c1=O
B. COc1cc2c(cc1-c1cnn(C)c1)CCCN2c1cccc2[nH]c(=O)c(C)cc12
C. Cc1cc2c(N3CCc4ccc(-c5cnn(C)c5)cc4C3)cccc2n(C)c1=O
query: Arrange by inhibition at 10 µM, high to low. API: response body holds the labels in the requested order.
result: A, C, B

###

Molecular target: recombinant BRD4 FL bromodomain (Homo sapiens, UniProt O60885)
Construct: fused on or other part: 6xHis tag, inferred from detection with Mab ANTI 6HIS-XL665
Test: BRD4 FL TR-FRET displacement assay
Assay type: binding
Conditions: BRD4 FL, compound at 10 μM; read-out: % Inhibition (10 μM)
Experimental: The potency of compounds to inhibit BRD4 FL enzyme was tested in a TR-FRET displacement assay using recombinant BRD4 FL bromodomain obtained In-house. The assay buffer was 50 mM HEPES (pH 7.5), 50 mM NaCl, 500 μM CHAPS. […] Fluorescence emission of the samples at 665 and 615 nm were measured at an excitation of 340 nm and their ratio was plotted against the compound concentrations to generate dose-response curve. […]
Readout Type: inhibition at 10 µM (%)

[[record]]
compound = "COc1cc(N2CCN(C)c3cc(-c4cnn(C)c4)nc(C)c32)c2cc(C)c(=O)n(C)c2c1 [Example 127]"
measurement = 32


P. Cc1cc2c(N3CCN(C)c4cc(-c5cnn(C)c5)ncc43)cc(N3CCS(=O)(=O)CC3)cc2n(C)c1=O [Example 148]
Q. Cc1cc2c(N3CCN(C)c4cc(-c5cnn(C)c5)c(C#N)cc43)cccc2n(C)c1=O [Example 42]
query: Between the two listed entries P and Q , which has its inhibition at 10 µM at the higher number? Your answer should be the label of the entry you select.
result: Q

###

molecular target: recombinant CREBBP bromodomain (Homo sapiens); construct: recombinant CREBBP bromodomain obtained from BPS Bioscience, USA; assay: CBP TR-FRET displacement assay; conditions: dose-response, read-out: IC50 (group A, B, C)
pIC50: −log10 of the molar value.
Readout Type: pIC50

The examples below pair each entry with its known result.
[[record]]
smi = "Cc1cc2c(N3CCN(C)c4cc(-c5cnn(C)c5)ncc43)nc(N3CC4(COC4)C3)cc2n(C)c1=O"
measurement = "< 8.00"

[[record]]
smi = "Cc1cc2c(N3CCN(C)c4cc(-c5cnn(C)c5)c(CO)cc43)cccc2[nH]c1=O"
measurement = "7.00 to 7.29"

[[record]]
smi = "Cc1cc2c(N3CCN(C)c4cc(-c5cnn(C)c5)ccc43)cccc2[nH]c1=O"
measurement = "< 8.00"


Okay, next one:
Measured pIC50, `COc1cc(N2CCN(C(C)=O)c3cc(-c4cnn(C)c4)c(C#N)cc32)c2cc(C)c(=O)n(C)c2c1` : 7.00 to 7.29

###

molecular target: recombinant CREBBP bromodomain (Homo sapiens, UniProt Q92793); construct: recombinant CREBBP bromodomain obtained from BPS Bioscience, USA; assay: CBP TR-FRET displacement assay; conditions: dose-response, read-out: IC50 (group A, B, C)
Sequence (Q92793 1085-1192 limits assumed): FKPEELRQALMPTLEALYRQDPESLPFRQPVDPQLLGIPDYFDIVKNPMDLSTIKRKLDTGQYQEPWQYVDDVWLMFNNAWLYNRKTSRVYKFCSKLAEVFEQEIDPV
pIC50: −log10 of the molar value.
Catalogue of molecules with associated pIC50

[[record]]
molecule = "Cc1cc2c(N3CCN(C)c4cc(-c5cnn(C)c5)c(C#N)cc43)nccc2[nH]c1=O"
readout_type = "pIC50"
measurement = "< 8.00"

[[record]]
molecule = "CCN1CCN(c2cc(OC)cc3c2cc(C)c(=O)n3C)c2cc(C#N)c(N3CCN(C(C)=O)CC3)cc21"
readout_type = "pIC50"
measurement = "> 7.30"

[[record]]
molecule = "COc1cc(N2CC(=O)N(C)c3ccc(S(N)(=O)=O)cc32)c2cc(C)c(=O)n(C)c2c1"
readout_type = "pIC50"
measurement = "< 8.00"

[[record]]
molecule = "COc1cc(N2CCN(C)c3cc(-c4cnn(C)c4)c(S(=O)(=O)NC(C)=O)cc32)c2cc(C)c(=O)n(C)c2c1"
readout_type = "pIC50"
measurement = "> 7.30"

[[record]]
molecule = "CNC(=O)C1CCN(c2cc3c(cc2F)N(c2cc(OC)cc4c2cc(C)c(=O)n4C)CCN3C)CC1"
readout_type = "pIC50"
measurement = "7.00 to 7.29"

[[record]]
molecule = "COc1cc(N2CCN(C)c3cc(-c4ccnn4C)c(C#N)cc32)c2cc(C)c(=O)n(C)c2c1"
readout_type = "pIC50"
measurement = "> 7.30"


Entry `COc1cc(N2CCN(C)c3cc(N4CCC(C)(N)CC4)c(C#N)cc32)c2cc(C)c(=O)n(C)c2c1` ; pIC50 = > 7.30

pIC50 reported for this molecule `CC(=O)N1CCN(c2cc(N3CCOCC3)cc3c2cc(C)c(=O)n3C)c2cnc(-c3cnn(C)c3)cc21` : > 7.30

The molecule listed as `Cc1cc2c(N3CCN(C)c4cc(-c5ccsc5)ncc43)cc(N3CCOCC3)cc2n(C)c1=O` has a reported pIC50 of > 7.30

Memo: `Cc1cc2c(N3CCN(C)c4nc(-c5cnn(C)c5)ncc43)cc(N3CCOCC3)cc2n(C)c1=O` , reported pIC50: > 7.30

Entry `CNC(=O)N1CCN(c2cc(OC)cc3c2cc(C)c(=O)n3C)c2cc(C#N)c(-c3cnn(C)c3)cc21` , pIC50 reported as > 7.30

###

molecular target: recombinant CREBBP bromodomain (Homo sapiens, UniProt Q92793); construct: recombinant CREBBP bromodomain obtained from BPS Bioscience, USA; assay: CBP TR-FRET displacement assay; details: dose-response, read-out: IC50 (group A, B, C)
pIC50: −log10 of the molar value.
A collection of compounds and their measured pIC50

Answered cases to consult:
[[record]]
smi = "Cc1cc2c(N3CCN(C)c4cc(-c5cnn(C)c5)ncc43)cc(C3CCCCC3)cc2n(C)c1=O"
readout_type = "pIC50"
measurement = "7.00 to 7.29"

[[record]]
smi = "CNC(=O)N1CCN(c2cc3c(cc2C#N)N(c2cc(OC)cc4c2cc(C)c(=O)n4C)CCN3C)CC1"
readout_type = "pIC50"
measurement = "> 7.30"

[[record]]
smi = "COc1cc(N2CCN(C)c3cc(C4CCN(C)CC4)c(C#N)cc32)c2cc(C)c(=O)n(C)c2c1"
readout_type = "pIC50"
measurement = "7.00 to 7.29"

[[record]]
smi = "Cc1cc2c(N3CCCc4cc(-c5cnn(C)c5)c(C(F)F)cc43)nc(N3C[C@@H]4C[C@H]3CO4)cc2n(C)c1=O"
readout_type = "pIC50"
measurement = "> 7.30"


Consider the additional compound presented here.
Record summary for `Cc1cc2c(N3CCN(C)c4cc(-c5cnn(C)c5)c(F)cc43)cc(N3CCOCC3)cc2n(C)c1=O` : reported pIC50 = > 7.30

###

pIC50 listing for selected compounds.
Molecular target: recombinant CREBBP bromodomain (Homo sapiens)
Construct: recombinant CREBBP bromodomain obtained from BPS Bioscience, USA
Assay: CBP TR-FRET displacement assay
Details: dose-response, read-out: IC50 (group A, B, C)
Method: The potency of compounds to inhibit CREBBP enzyme was tested in a TR-FRET displacement assay using recombinant CREBBP bromodomain obtained from BPS Bioscience, USA. […] Fluorescence emission of the samples at 665 and 615 nm were measured at an excitation of 340 nm and their ratio was plotted against the compound concentrations to generate dose-response curve. The percent inhibition of the test compounds is calculated using the ratio of enzyme activity controls. […]
pIC50: −log10 of the molar value.

# annotated cases, reported pIC50 shown
[[record]]
smi = "Cc1cc2c(N3CCN(C)c4cc(-c5cnn(C)c5)c(C#N)cc43)cc(OC3COC3)cc2n(C)c1=O"
readout_type = "pIC50"
measurement = "> 7.30"

[[record]]
smi = "COc1cc(N2CCOc3cc(-c4cnn(C)c4)ncc32)c2cc(C)c(=O)n(C)c2c1"
readout_type = "pIC50"
measurement = "> 7.30"


Shift focus to the following entry.
compound `COc1cc(N2CCc3cc(-c4cnn(C)c4)c(C(F)F)cc32)c2cc(C)c(=O)n(C)c2c1` , pIC50 observed: > 7.30
